Biological target: T1, human BCMA (B-cell maturation antigen) on cells (human, UniProt Q02223 1-184)
T1 construct: whole, on cells; also called hBCMA; hBCMA/HEK293 cell line
T1 sequence (looked up): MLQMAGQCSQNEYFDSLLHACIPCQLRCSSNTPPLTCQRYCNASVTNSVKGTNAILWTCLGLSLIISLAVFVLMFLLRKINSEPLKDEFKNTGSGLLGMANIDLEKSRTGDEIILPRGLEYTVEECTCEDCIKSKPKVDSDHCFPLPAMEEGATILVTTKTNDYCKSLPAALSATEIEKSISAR
Experiment: flow cytometry, hBCMA-expressing HEK293 against parental HEK293 cells
# maps each entry to its fold selective binding (hBCMA-expressing HEK293 over parental HEK293 cells)
Could you give me the number in fold? Just the number is fine.

// solved cases for fold selective binding (hBCMA-expressing HEK293 over parental HEK293 cells) follow
BCMA-18 anti-BCMA scFv (scFv, VH-(G4S)3-VL scFv) scFv: EVQLLESGGGLVQPGGSLRLSCAASGFTFSSYWMSWHRQAPGKGPEWVAHINQDGSEKYYVDSVKGRFTISRDNAESSLYLQMNSLRAEDTAVYYCARWLAVTNWGQGTLVTVSSGGGGSGGGGSGGGGSQSVLTQPPSASGTPGQRVTISCSGSGSNIGSNDVSWYQQIPGTAPKLLIYWNDQRPSGVPDRFSGSKSGTSASLAISGLRSEDEADYYCAAWDDSLNGWVFGGGTKLTVL = 2.2
BCMA-21 anti-BCMA scFv (scFv, VH-(G4S)3-VL scFv) scFv: EVQLVESGGGLVKPGGSLKLSCAASGFTFSDYYMSWIRQAPGKGLEWVSYISSSGSTIYYADSVKGRFTISRDNAKNSLYLQMNSLRAEDTAVYYCAKVDGGYTEDYWGQGTLVTVSSGGGGSGGGGSGGGGSQSVLTQPPSASGTPGQRVTISCSGSGSNIGSNDVSWYQQIPGTAPKLLIYWNDQRPSGVPDRFSGSKSGISASLAISGLRSEDEADYYCAAWDDSLNGYVFGTGTKVTVL = 3.4
BCMA-20 anti-BCMA scFv (scFv, VH-(G4S)3-VL scFv) scFv: EVQLLESGGGLVQPGRSLRLSCAASGFTFDDYAMHWVRQAPGKGLEWVSGISWNSGSIGYADSVKGRFTISRDNAKNSLYLQMNSLRAEDTALYYCAKGGLGITPYYFDYWGQGTLVTVSSGGGGSGGGGSGGGGSQPVLTQPPSASGTPGQRVTISCSGGKTVNWFRQVPGTAPQLLIYSNDQRPSGVPDRFSGSKSGSSASLDISGLQSEDEAYYYCGSWDDSLNAWVFGGETKLTVL = 10.8

Prompt line: Specify measured fold selective binding (hBCMA-expressing HEK293 over parental HEK293 cells) for BCMA-22 anti-BCMA scFv (scFv, VH-(G4S)3-VL scFv) scFv: EVQLVESGGGLVKPGGSLRLSCAASGFTFSDYYMSWIRQAPGKGLEWVSYISSSGSTIYYADSVKGRFTISRDNAKNSLYLQMNSLRAEDTAVYYCAKVDGDYTEDYWGQGTLVTVSSGGGGSGGGGSGGGGSQSALTQPASVSGSPGQSITISCTGSSSDVGKYNLVSWYQQPPGKAPKLIIYDVNKRPSGVSNRFSGSKSGNTATLTISGLQGDDEADYYCCSYGGSRSYVFGTGTKVTVL .
Response line: 7.5
